test system: Human LAD2 cells; experiment: Mast Cell Beta-Hexosaminidase Release Assay (versus 500 nM Cortistatin-14); format: cell-based; settings: 500 nM Cortistatin-14 agonist, read-out: MRGPR2 Antagonist Activity
pIC50: −log10 of the molar value.
measure name: pIC50

compound="O=C(N[C@H]1CC[C@@H](Nc2cc(C(F)(F)F)nc3ccc(Cl)cc23)CC1)c1ccc(F)cc1 [1-5]" result="6.30 to 7.00"
compound="N#Cc1cccc(C(=O)N[C@H]2CC[C@@H](Nc3nc(C(F)(F)F)nc4ccccc34)CC2)c1 [4-288]" result="6.00 to 6.30"
compound="CC(=O)Nc1cccc(C(=O)N[C@H]2CC[C@@H](Nc3cc(C(F)(F)F)nc4ccc(Cl)cc34)CC2)c1 [4-7]" result="6.30 to 7.00"
compound="O=C(N[C@H]1CC[C@@H](Nc2cc(C(F)(F)F)nc3ccc(Cl)cc23)CC1)c1ccnc2[nH]ccc12 [4-139]" result="> 7.00"
